# measured target: α2AAR (α2A-adrenergic receptor) (Homo sapiens)
# Construct: expressed in transfected cells; host or cells: HEK293
# Sequence (P08913 whole entry, species assumed): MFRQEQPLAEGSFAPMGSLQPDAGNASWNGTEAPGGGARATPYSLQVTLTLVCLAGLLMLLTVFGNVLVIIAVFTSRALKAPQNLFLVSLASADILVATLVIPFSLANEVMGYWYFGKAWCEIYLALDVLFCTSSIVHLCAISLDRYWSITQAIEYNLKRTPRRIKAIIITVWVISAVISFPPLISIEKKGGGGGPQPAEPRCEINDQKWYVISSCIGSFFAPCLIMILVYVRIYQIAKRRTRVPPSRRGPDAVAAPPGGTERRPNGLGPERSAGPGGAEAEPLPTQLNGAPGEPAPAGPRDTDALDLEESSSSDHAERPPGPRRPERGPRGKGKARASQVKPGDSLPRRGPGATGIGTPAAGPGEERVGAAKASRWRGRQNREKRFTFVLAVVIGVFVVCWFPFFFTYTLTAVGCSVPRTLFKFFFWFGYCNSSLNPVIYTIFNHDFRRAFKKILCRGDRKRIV
# experiment description: α2AAR FLIPR assay (agonist activity)
# Format: cell-based
# applied conditions: FLIPR, α2AAR cell line hosted in HEK293 cells; read-out: α2A agonist activity (EC50)
What EC50 was measured for each of the following?

Past entries and their recorded results:
- compound: "Cc1cccc(C(c2cccc(OCCNC(=O)Nc3ccncn3)c2)c2c[nH]cn2)c1C (stereo not drawn) [compound 4]"
  reported measurement: "50 to 250 nM"
- compound: "Cc1cccc(C(c2ccnc(C(N)=O)c2)c2c[nH]cn2)c1C (stereo not drawn) [compound 31]"
  reported measurement: "10 to 50 nM"
- compound: "CNc1cccc(CC(c2c[nH]cn2)c2cccc(C)c2C)c1 (stereo not drawn) [compound 231]"
  reported measurement: "10 to 50 nM"
- compound: "Cc1cccc(C(Cc2ccc(C(C)C(=O)O)cc2)c2c[nH]cn2)c1C (single isomer, unassigned) [174-D]"
  reported measurement: "10 to 50 nM"
- compound: "COc1ccccc1C(Cc1cccc(NS(C)(=O)=O)c1)N=C1NCCN1 (stereo not drawn) [compound 505]"
  reported measurement: "50 to 250 nM"
- compound: "Cc1cccc(C(c2cccc(C(=O)N3CCOCC3)c2)c2c[nH]cn2)c1C (stereo not drawn) [compound 23]"
  reported measurement: "250 to 1000 nM"
- compound: "Cc1cccc(C(c2cccc(-c3cnnn3C)c2)c2c[nH]cn2)c1C (stereo not drawn) [compound 164]"
  reported measurement: "10 to 50 nM"
- compound: "Cc1cccc(C(c2cccc(NC(=O)CC[N+](C)(C)C)c2)c2c[nH]cn2)c1C (stereo not drawn) [compound 141]"
  reported measurement: "50 to 250 nM"

The following compounds each have a reported value; give each one's EC50.
1. CNC(=O)Nc1cccc(C(c2c[nH]cn2)c2cccc(C)c2C)n1 (stereo not drawn) [compound 146]
2. Cc1cccc(C(c2ccc(C(=O)O)cc2)c2c[nH]cn2)c1C (stereo not drawn) [compound 12]
3. CNC(=O)Nc1ccc(CC(c2c[nH]cn2)c2cccc(C)c2C)cc1 (stereo not drawn) [compound 237]
4. Cc1cccc(C(Cc2ccc(N(C)C(=O)N(C)C)cc2)c2c[nH]cn2)c1C (stereo not drawn) [compound 228]
5. Cc1cccc(C(Cc2cccc(NS(=O)(=O)CC3CCOCC3)c2)c2c[nH]cn2)c1C (stereo not drawn) [compound 112]
6. Cc1cccc(C(Cc2ccc(C(N)=O)cc2)c2c[nH]cn2)c1C (stereo not drawn) [compound 163]
7. Cc1cccc(C(c2cccc(NC(=O)C3CCOCC3)c2)c2c[nH]cn2)c1C (stereo not drawn) [compound 149]
8. Cc1cccc(C(c2c[nH]cn2)c2cccc(OCCNS(C)(=O)=O)c2F)c1C (stereo not drawn) [compound 55]

1. 10 to 50 nM
2. > 1000 nM
3. 10 to 50 nM
4. < 10 nM
5. 10 to 50 nM
6. 10 to 50 nM
7. 10 to 50 nM
8. 10 to 50 nM

Would you mind giving EC50 for every compound in the list below?
1. CC(=O)Nc1cccc(C(c2c[nH]cn2)c2cccc(C)c2C)c1F (stereo not drawn) [compound 50]
2. Cc1cccc(C(c2c[nH]cn2)c2cccc(C(N)=O)c2Cl)c1C (stereo not drawn) [compound 38]

["50 to 250 nM", "10 to 50 nM"]
